target or system: T1, V domain of human CD33 (human, UniProt P20138 18-139, limits assumed)
T1 construct: recombinant, fully glycosylated V domain; also called Human CD33 V domain
method: SPR, Fab captured, 37C;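 also: biacore 8K surface plasmon resonance with Fabs held on an amine-coupled anti-Fab antibody surface, soluble monomeric CD33 domain injected as analyte, double-referenced 1:1 binding fit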
Each record here notes measured koff.

binder: ADI-11828 Fab (Fab, V domains shown, Fab fragment; also called Ab27) VH: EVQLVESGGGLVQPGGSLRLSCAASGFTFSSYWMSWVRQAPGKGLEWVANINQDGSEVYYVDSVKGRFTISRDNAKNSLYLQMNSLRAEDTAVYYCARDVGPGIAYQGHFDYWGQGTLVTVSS VL: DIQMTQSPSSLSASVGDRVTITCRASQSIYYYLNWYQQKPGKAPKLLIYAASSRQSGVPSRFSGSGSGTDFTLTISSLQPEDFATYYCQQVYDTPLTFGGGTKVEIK
koff, s⁻¹: 0.0213
--
binder: ADI-11826 Fab (Fab, V domains shown, Fab fragment; also called Ab26) VH: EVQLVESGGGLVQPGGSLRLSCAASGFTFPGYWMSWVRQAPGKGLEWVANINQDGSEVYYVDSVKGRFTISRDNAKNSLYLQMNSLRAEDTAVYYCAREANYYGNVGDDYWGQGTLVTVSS VL: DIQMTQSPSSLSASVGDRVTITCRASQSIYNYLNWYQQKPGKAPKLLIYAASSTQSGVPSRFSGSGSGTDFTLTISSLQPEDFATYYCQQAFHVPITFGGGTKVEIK
koff, s⁻¹: 0.0225
--
binder: ADI-10157 Fab (Fab, V domains shown, Fab fragment; also called Ab13) VH: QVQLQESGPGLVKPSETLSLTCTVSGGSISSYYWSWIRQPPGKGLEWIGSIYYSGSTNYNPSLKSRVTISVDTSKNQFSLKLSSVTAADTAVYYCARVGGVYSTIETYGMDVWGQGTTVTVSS VL: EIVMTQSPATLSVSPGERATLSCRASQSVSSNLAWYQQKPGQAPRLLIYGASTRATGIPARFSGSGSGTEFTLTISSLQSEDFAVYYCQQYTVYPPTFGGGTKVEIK
koff, s⁻¹: 0.0151

Data origin: patent US20220380459A1
